# Test summary: Acute toxicity (LD₅₀) in mice
# Condition set: mouse, in vivo, oral administration
Counter-ions that a name gives are not always drawn.
Quantity name: LD50 (mg/kg)
Give the value, in units of mg/kg, as a plain number.

## Task Would you mind telling me what LD50 value was observed for Cc1[nH]cnc1Cn1ccc2c(c1=O)c1ccccc1n2C [hydrochloride] ?
## Result 290

====

# Test summary: Acute toxicity (LD₅₀) in mice
# Condition set: mouse, in vivo, intravenous administration
Counter-ions that a name gives are not always drawn.
Quantity name: LD50 (mg/kg)
Give the value, in units of mg/kg, as a plain number.

## Task Would you mind telling me what LD50 value was observed for Cc1[nH]cnc1Cn1ccc2c(c1=O)c1ccccc1n2C [hydrochloride] ?
## Result 48
